These data points were gathered from the CATMoS acute toxicity set (Mansouri et al. 2021).

assay: GHS categories as the set defines them, by LD50: 1 up to 5, 2 up to 50, 3 up to 300, 4 up to 2000, 5 above 2000 mg/kg; details: rat; in vivo; po
I'd be grateful if you could share measured GHS category for these entries.
Number only, please.

Entry CCC(=O)C=CC1C(C)=CCCC1(C)C (stereo not given) — recorded GHS category = 5

What the record says about OCCCCSc1ccc(Cl)cc1 : GHS category is 4

The measured GHS category associated with Cc1nnc(SCC2=C(C(=O)O)N3C(=O)[C@@H](NC(=O)Cn4cnnn4)[C@H]3SC2)s1 reads 5

Entry CCCCCCBr , GHS category reported as 5

Per the record, CCOC(=O)C1=C(COCCN2C(=O)c3ccccc3C2=O)NC(C)=C(C(=O)OC)C1c1ccccc1Cl (stereo not given) has GHS category of 5

The compound listed as CCOC(=O)C(=O)Nc1nc(-c2ccccc2)cs1 shows GHS category equal to 5

Lab book: GHS category of C=C[C@](C)(O)CC[C@@H]1[C@@]2(C)CCCC(C)(C)[C@@H]2CC[C@@]1(C)O noted as 5

The compound identified as CCCCCCOC(=O)CC registered its GHS category at 5

// GHS category value for COc1cc2c(cc1OC)[C@@H]1C[C@H](C[C@H]3CCCCN31)OC(=O)C=Cc1ccc(O)c-2c1 : 4

So, CC1(C)C2CC[C@]3(C)C(CC=C4[C@H]5C[C@](C)(C(=O)O)CC[C@]5(C)CC[C@]43C)[C@@]2(C)CC[C@@H]1OC(=O)C=CC(=O)O (stereo not given in full) ? Its GHS category was 5

###

assay: rat acute oral toxicity; conditions: in vivo
measure: log10(LD50) (log10 of the value in mg/kg)
Answers are given as log10 of LD50 in mg/kg.

Entry O=C=NC1CCC(CC2CCC(N=C=O)CC2)CC1 (stereo unspecified) ; log10(LD50) = 3.03

Measured log10(LD50) of COc1ccccc1O : 2.72

Per the record, O=C(CS)OC(CO)CO has log10(LD50) of 2.24

The measured log10(LD50) associated with NC(=O)c1cccnc1 reads 3.54

log10(LD50) reported for this molecule C=CC(C)C#N (stereo unspecified) : 2.37

Documented log10(LD50) of CN(C)C(=O)Nc1cccc(C(F)(F)F)c1 : 3.16

Kindly note the recorded log10(LD50) for c1ccc(OP(Oc2ccccc2)Oc2ccccc2)cc1 , which is 2.65

# molecule CS(=O)(=O)Cl ; its log10(LD50) = 1.70

The reported value for Nc1c(Cl)c(Cl)nc(C(=O)O)c1Cl in terms of log10(LD50) is 2.84

// sample ClC=C(Cl)Cl , its log10(LD50) was 3.69

Documented log10(LD50) of C=CC(=O)NC(C)(C)CS(=O)(=O)O : 3.26

Looking up Clc1nc(Cl)nc(Cl)n1 , I found its log10(LD50) recorded as 2.50

The reported log10(LD50) of the molecule CC(C)(C)NCCOCCO was 3.15

Lookup result for O=[N+]([O-])c1ccc(Cl)cc1 ; measured log10(LD50): 2.66

For CCN(CC)c1nc(Nc2ccc(/C=C/c3ccc(Nc4nc(Nc5cc(S(=O)(=O)O)ccc5S(=O)(=O)O)nc(N(CC)CC)n4)cc3S(=O)(=O)O)c(S(=O)(=O)O)c2)nc(Nc2cc(S(=O)(=O)O)ccc2S(=O)(=O)O)n1 the molecule record lists log10(LD50) as 4.05

The molecule listed as O=C(O)c1c(Cl)ccc(Cl)c1Cl has a reported log10(LD50) of 2.81

Looking up O=P(O)(O)CCCl , I see its log10(LD50) listed as 3.53

For this molecule ( COC(=O)c1ccccc1O ), measured log10(LD50) is 2.95

Lookup result for CCOC=O ; measured log10(LD50): 3.27

log10(LD50) in this record for CC(C1CC1)C(O)(Cn1cncn1)c1ccc(Cl)cc1 (stereo unspecified) : 2.54

In plain terms, CCCC1CC(C)(OC(C)=O)CCO1 (stereo unspecified) has a documented log10(LD50) of 3.63

Measured log10(LD50), CC(C)COC(=O)CC(C(=O)OCC(C)C)S(=O)(=O)O (stereo unspecified) : 3.44

Item: CCC[C@@H]1C[C@@H](C(=O)N[C@@H]([C@H]2O[C@H](SC)[C@H](O)[C@@H](O)[C@H]2O)[C@@H](C)O)N(C)C1 | log10(LD50): 3.00

Entry under test: O=C=Nc1ccccc1 . Its log10(LD50) was 2.90

Value of log10(LD50) reported for the molecule C=COCCCl is 2.32

// Cc1ccccc1NC(=N)Nc1ccccc1C : log10(LD50) value = 1.85

Short answer for CCC(C)Nc1c([N+](=O)[O-])cc(C(C)(C)C)cc1[N+](=O)[O-] (stereo unspecified) : log10(LD50) was 3.02

response.value for COc1ccc(Cc2nccc3cc(OC)c(OC)cc23)cc1OC (field: log10(LD50)) = 2.51

Item: Cc1cccc(N=C=O)c1 | log10(LD50): 3.47

Value of measured log10(LD50) for the entry CC(=O)OC(C)(C)C : 3.61

According to the records, this molecule CSc1nc(NC(C)C)nc(NC(C)C)n1 displays log10(LD50) of 3.29

Entry CC1CCCCN1CCCOC(=O)c1ccc(Cl)c(Cl)c1 (stereo unspecified) ; log10(LD50) = 2.90

Item: CCCC(C)c1cccc(OC(=O)NC)c1 (stereo unspecified) | log10(LD50): 1.70

// CCNC(=O)CSP(=S)(OC)OC : log10(LD50) value = 2.10

Entry N#CN , log10(LD50) reported as 2.13

The value of log10(LD50) measured for the molecule Clc1cccc(Cl)c1N=C1NCCN1 turned out to be 1.83

Briefly, log10(LD50) measured for CC(C)=CC1C(C(=O)OCc2coc(Cc3ccccc3)c2)C1(C)C (stereo unspecified) : 3.09

Lookup result for COc1ccc(C(=O)c2ccccc2)c(O)c1 ; measured log10(LD50): 3.87

The recorded log10(LD50) for CNC(=S)NN is 1.15

Entry CCOP(=S)(OCC)SCSP(=S)(OCC)OCC — recorded log10(LD50) = 1.11

# log10(LD50) (molecule: Cc1ccc(C)c(C)c1 ) is 3.52

For record Clc1cccc(Cl)c1 the listed log10(LD50) is 2.76

Entry CC1(C)C(=O)N(Br)C(=O)N1Cl , log10(LD50) reported as 2.69

CC(O)CO (stereo unspecified) has a reported log10(LD50) of 4.30

Lab note: C#CCOC(=O)[C@@H](C)Oc1ccc(Oc2ncc(Cl)cc2F)cc1 gave log10(LD50) of 3.35

The recorded log10(LD50) for Cc1ccc(S(C)(=O)=O)cc1[N+](=O)[O-] is 2.97

Per the record, C=CCO has log10(LD50) of 1.81

Looking up O=C(O)CCS , I see its log10(LD50) listed as 1.80

Recorded log10(LD50) (molecule CC[N+](=O)[O-] ): 3.03

# log10(LD50) of Clc1cc2c(cc1Cl)Oc1cc(Cl)c(Cl)cc1O2 = -1.70

Lab book: log10(LD50) of ClC1=C(Cl)C2(Cl)C3C(Cl)C(Cl)CC3C1(Cl)C2(Cl)Cl (stereo unspecified) noted as 2.30

So, CSCCC=O ? Its log10(LD50) was 2.69

What the record says about CCOC(=O)C(SP(=S)(OC)OC)c1ccccc1 (stereo unspecified) : log10(LD50) is 1.85

Reported log10(LD50) ( CC1(C)CC(NCCCCCCNC2CC(C)(C)NC(C)(C)C2)CC(C)(C)N1 ) = 2.91

Measured log10(LD50) of OCCOCCOCCOCCO : 4.51

Kindly note the recorded log10(LD50) for CC(C)CCCCCCO , which is 3.47

Per the record, CCCNC(=O)NS(=O)(=O)c1ccc(Cl)cc1 has log10(LD50) of 3.33

Entry CC(O)CNCC(C)O (stereo unspecified) ; log10(LD50) = 3.68

log10(LD50) reported for this molecule O=P(OC(CCl)CCl)(OC(CCl)CCl)OC(CCl)CCl : 3.27

// recorded log10(LD50) for N#CC(Br)Br : 2.39

Record O=CC=Cc1ccccc1 . Reported log10(LD50): 3.34
